Tested on: Botrytis cinerea
details: SFM + 100 mM NaCl; Table 18
Bridge positions count the residues as written; N and C are the ends. Peptide text beside a SMILES is read from it.
assay metric: MIC (SFM + 100 mM NaCl) (µM)
Number only, in µM; omit the unit.

The compound listed as CC[C@H](C)[C@@H]1NC(=O)[C@H](CCCNC(=N)N)NC(=O)[C@@H](NC(=O)[C@H](CCCNC(=N)N)NC(=O)CNC(=O)[C@@H](N)CO)CSSC[C@@H](C(N)=O)NC(=O)[C@H](CC(N)=O)NC(=O)[C@H](CCCCN)NC(=O)[C@H]([C@@H](C)O)NC(=O)[C@H](Cc2c[nH]c3ccccc23)NC(=O)[C@H](Cc2ccccc2)NC(=O)[C@H](Cc2c[nH]c3ccccc23)NC(=O)[C@H](CCCNC(=N)N)NC(=O)[C@H](Cc2ccccc2)NC(=O)[C@H](CC(C)C)NC1=O [GMA1C_V2] (H-SGRCRILFRWFWTKNC-NH2; disulfide 4-16) shows MIC (SFM + 100 mM NaCl) equal to 3

Per the record, CC[C@H](C)[C@@H]1NC(=O)[C@H](CCCNC(=N)N)NC(=O)[C@H]([C@@H](C)O)NC(=O)[C@H](Cc2ccccc2)NC(=O)[C@H](Cc2c[nH]c3ccccc23)NC(=O)[C@H](Cc2ccccc2)NC(=O)[C@H](CCCNC(=N)N)NC(=O)[C@H](CCCNC(=N)N)NC(=O)[C@H](CC(C)C)NC(=O)[C@H](Cc2ccccc2)NC(=O)CNC(=O)[C@H](CCCCN)NC(=O)[C@@H](NC(=O)[C@H](CCCNC(=N)N)NC(=O)CNC(=O)CN)CSSC[C@@H](C(N)=O)NC1=O [GMA4C_V9] (H-GGRCKGFLRRFWFTRIC-NH2; disulfide 4-17) has MIC (SFM + 100 mM NaCl) of 3

----------
I'd be grateful if you could share measured MIC (SFM + 100 mM NaCl) for these entries.
System: Botrytis cinerea
details: SFM + 100 mM NaCl; Table 18
Bridge positions count the residues as written; N and C are the ends. Peptide text beside a SMILES is read from it.

Summary for this compound, CC[C@H](C)[C@@H]1NC(=O)[C@H](CCCNC(=N)N)NC(=O)[C@@H](NC(=O)[C@H](CCCNC(=N)N)NC(=O)CNC(=O)[C@@H](N)CO)CSSC[C@@H](C(N)=O)NC(=O)[C@H](CC(N)=O)NC(=O)[C@H](CCCCN)NC(=O)[C@H]([C@@H](C)O)NC(=O)[C@H](Cc2ccccc2)NC(=O)[C@H](Cc2ccc(O)cc2)NC(=O)[C@H](Cc2c[nH]c3ccccc23)NC(=O)[C@H](CCCNC(=N)N)NC(=O)[C@H](Cc2ccccc2)NC(=O)[C@H](CC(C)C)NC1=O [GMA1C_V3] (H-SGRCRILFRWYFTKNC-NH2; disulfide 4-16) : MIC (SFM + 100 mM NaCl) is 3 µM

The compound listed as C[C@H](NC(=O)CN)C(=O)N[C@H]1CSSC[C@@H](C(N)=O)NC(=O)[C@H](CCCCN)NC(=O)[C@H](CCCCN)NC(=O)[C@H](Cc2ccc(O)cc2)NC(=O)[C@H](Cc2c[nH]c3ccccc23)NC(=O)[C@H](Cc2ccccc2)NC(=O)[C@H](Cc2c[nH]c3ccccc23)NC(=O)[C@H](C)NC(=O)[C@H](Cc2ccccc2)NC(=O)CNC(=O)[C@H](Cc2ccccc2)NC(=O)CNC(=O)[C@H](CCC(N)=O)NC(=O)[C@H](CCCNC(=N)N)NC(=O)[C@H](Cc2c[nH]cn2)NC1=O [GMA5CA_V3] (H-GACHRQGFGFAWFWYKKC-NH2; disulfide 3-18) has a reported MIC (SFM + 100 mM NaCl) of >12 µM

MIC (SFM + 100 mM NaCl) reported for this compound C[C@H](NC(=O)CN)C(=O)N[C@H]1CSSC[C@@H](C(N)=O)NC(=O)[C@H](CCCCN)NC(=O)[C@H](CCCCN)NC(=O)[C@H](Cc2ccc(O)cc2)NC(=O)[C@H](Cc2ccccc2)NC(=O)[C@H](Cc2ccccc2)NC(=O)[C@H](Cc2ccccc2)NC(=O)[C@H](C)NC(=O)[C@H](Cc2ccccc2)NC(=O)CNC(=O)[C@H](Cc2ccccc2)NC(=O)CNC(=O)[C@H](CCC(N)=O)NC(=O)[C@H](CCCNC(=N)N)NC(=O)[C@H](Cc2c[nH]cn2)NC1=O [GMA5CA_V4] (H-GACHRQGFGFAFFFYKKC-NH2; disulfide 3-18) : >12 µM

Origin of values: patent US20240383955A1
